TARGET_ENTITY: Cytochrome P450 1A2 (Homo sapiens)
EXPERIMENT_SUMMARY: Cytochrome panel assay with activity outcomes
PROTOCOL_CONDITIONS: recombinant CYP, pro-luciferin dealkylation, luminescence, p450-cyp1a2; series mostly up to 57.1 µM
In all, about 16,000 compounds went through this assay and about 5,700 (36%) were called active. About 24% were inconclusive and are not listed. Calls follow the shape of the dose curve; as a rule, active = well fitted curve in the direction sought with a large enough effect; inconclusive = small, poorly fitted or top-dose-only effect, or effect the other way; inactive = no such curve, though single readings can be large or run the other way. The list shows a part of the results.
Please reply with one of these outcomes: active, inactive

// param item: CCc1c(C)nc(N)n2c(SCC(=O)Nc3ccccc3)nnc12 ; yields the recorded call
inactive

// param item: NCc1ccc(S(N)(=O)=O)cc1 ; yields the recorded call
inactive

// param item: CN(CC(=O)O/N=C(\N)c1ccccn1)S(=O)(=O)c1ccccc1 ; yields the recorded call
inactive

// param item: O=C(O)CSc1nnc2c3ccccc3c3ccccc3c2n1 ; yields the recorded call
active

// param item: Cc1n[nH]c(C)c1S(=O)(=O)N1CCOCC1 ; yields the recorded call
inactive

// param item: Cc1ccccc1-c1nc(-c2ccc(NC(=O)c3cccs3)cc2)no1 ; yields the recorded call
active

// param item: N#Cc1c(NC(=O)C2CC(c3ccccc3Cl)=NO2)sc2c1CCC2 (centres undefined) ; yields the recorded call
active

// param item: Fc1cccc(NC(=S)NCCCN2CCOCC2)c1 ; yields the recorded call
inactive

// param item: O=C(Nc1cccc(Cl)c1Cl)c1snnc1-c1ccccc1 ; yields the recorded call
active

// param item: CCOC(=O)CN(c1ccccn1)S(=O)(=O)c1ccccc1 ; yields the recorded call
active

// param item: Cc1ccccc1C(=O)NC(C)c1ccc2c(c1)CCCC2 (centres undefined) ; yields the recorded call
active

// param item: CC(C)NC(=O)N1CCCC2(CCN(C(=O)c3csnn3)CC2)C1 ; yields the recorded call
inactive

// param item: CC(=O)N1CCC2(CCCN(Cc3nccs3)C2)CC1 ; yields the recorded call
inactive

// param item: Cc1ccccc1C(=O)NNC(=O)c1ccoc1C ; yields the recorded call
inactive

// param item: Cc1cccc(CNc2ncncc2-c2cccnc2)c1 ; yields the recorded call
active

// param item: CC(=O)C1=NOC(CNC(=O)c2c(-c3ccccc3Cl)noc2C)C1 (centres undefined) ; yields the recorded call
inactive

// param item: c1ccc(CNc2ncncc2-c2cccnc2)cc1 ; yields the recorded call
active

// param item: C[C@@H](Cc1ccccc1)Nc1ncnc2c1ncn2[C@@H]1O[C@@H](CO)[C@H](O)[C@@H]1O ; yields the recorded call
inactive

// param item: Cc1nc(C(=O)Nc2cccc(Cl)c2Cl)nn1-c1cc(OC(C)C)c(Cl)cc1Cl ; yields the recorded call
inactive

// param item: Cc1cccc(C(=O)NC2CCN(C(=S)NCc3ccco3)CC2)c1 ; yields the recorded call
inactive

// param item: Cc1cc([N+](=O)[O-])nn1CC(=O)NNC(=S)Nc1ccc(F)cc1 ; yields the recorded call
inactive

// param item: COc1cccc2cc3c(=O)oc4ccccc4c3nc12 ; yields the recorded call
active

// param item: Cc1cc(-c2cccc([N+](=O)[O-])c2)nc2ccc3ccccc3c12 ; yields the recorded call
active

// param item: Cc1nc2cnc(Oc3ccccc3)nc2n(C)c1=O ; yields the recorded call
active

====

TARGET_ENTITY: Cytochrome P450 1A2 (Homo sapiens)
EXPERIMENT_SUMMARY: Cytochrome panel assay with activity outcomes
PROTOCOL_CONDITIONS: recombinant CYP, pro-luciferin dealkylation, luminescence, p450-cyp1a2; series mostly up to 57.1 µM
Screen size: about 16,000 compounds; about 5,700 (36%) were called active. Inconclusive results (about 24%) are left out. Calls follow the shape of the dose curve; as a rule, active = well fitted curve in the direction sought with a large enough effect; inconclusive = small, poorly fitted or top-dose-only effect, or effect the other way; inactive = no such curve, though single readings can be large or run the other way. Some of the results follow.
Please reply with one of these outcomes: true for active, false for inactive

// param item: CC(C)C(=O)NC(=S)Nc1ccccc1C(=O)Nc1ccccc1 ; yields the recorded call
true

// param item: Cn1c(=O)c2c3c(sc2n2cnnc12)CCC3 ; yields the recorded call
true

// param item: Cn1c(SCC(=O)NC2CC2)nnc1-c1cccc(NC(=O)c2ccccc2F)c1 ; yields the recorded call
false

// param item: Cn1c(SCC(=O)c2ccc3c(c2)Cc2ccccc2-3)nnc1-c1ccccc1 ; yields the recorded call
true

// param item: CCN(CC)CCOC(=O)C1(c2ccc([N+](=O)[O-])cc2)CCCC1 ; yields the recorded call
true

// param item: CN(C)c1ccc(-c2nc3n(n2)C(c2cccnc2)C2=C(CC(C)(C)CC2=O)N3)cc1 (stereo unspecified) ; yields the recorded call
true

// param item: CN1CCc2c(sc3c2c(=O)n(-c2ccccc2)c2nncn32)C1 ; yields the recorded call
false

// param item: CCCCCCCCCCCCCCCCCCOC[C@@H](COP(=O)([O-])OCC[N+](C)(C)C)OC ; yields the recorded call
false

// param item: Nc1nc(Cl)nc2c1ncn2[C@@H]1O[C@@H](CO)[C@@H](O)[C@H]1O ; yields the recorded call
false

// param item: CN(C)N1C(N)=C(C#N)C(c2cccnc2)C2=C1CC(C)(C)CC2=O (stereo unspecified) ; yields the recorded call
false

// param item: NC(=S)Nc1cccc2cccnc12 ; yields the recorded call
true

====

TARGET_ENTITY: Cytochrome P450 1A2 (Homo sapiens) (UniProt P05177)
Sequence (P05177 whole entry, looked up): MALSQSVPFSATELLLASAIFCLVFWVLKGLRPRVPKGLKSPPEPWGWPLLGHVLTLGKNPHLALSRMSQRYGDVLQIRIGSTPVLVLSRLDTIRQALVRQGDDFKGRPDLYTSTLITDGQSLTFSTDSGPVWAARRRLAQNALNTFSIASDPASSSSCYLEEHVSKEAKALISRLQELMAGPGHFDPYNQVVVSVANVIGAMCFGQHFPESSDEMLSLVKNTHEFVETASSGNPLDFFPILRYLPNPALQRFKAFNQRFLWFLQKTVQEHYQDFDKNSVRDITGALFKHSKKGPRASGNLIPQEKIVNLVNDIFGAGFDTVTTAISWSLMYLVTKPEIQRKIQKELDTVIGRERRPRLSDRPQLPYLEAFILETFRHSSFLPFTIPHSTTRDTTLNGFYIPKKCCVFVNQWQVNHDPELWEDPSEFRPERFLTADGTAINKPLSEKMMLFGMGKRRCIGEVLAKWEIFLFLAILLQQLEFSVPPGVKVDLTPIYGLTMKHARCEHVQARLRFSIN
EXPERIMENT_SUMMARY: Cytochrome panel assay with activity outcomes
PROTOCOL_CONDITIONS: recombinant CYP, pro-luciferin dealkylation, luminescence, p450-cyp1a2; series mostly up to 57.1 µM
About 5,700 (36%) of roughly 16,000 compounds were called active. Another 24% or so got no clear call; they are omitted. The call rests on the fitted dose curve; in most records, active means well fitted curve in the direction sought with a large enough effect; inconclusive means small, poorly fitted or top-dose-only effect, or effect the other way; inactive means no such curve, though single readings can be large or run the other way. The list shows a part of the results.
Please reply with one of these outcomes: active, inactive

// param item: CCC(=S)/C=C1\Sc2ccc3ccccc3c2N1CCCS(=O)(=O)O ; yields the recorded call
inactive

// param item: CSc1nc(Oc2ccc(F)cc2)c2ccccc2n1 ; yields the recorded call
active

// param item: CS(=O)(=O)N1CCN(c2ccc([N+](=O)[O-])c(NCc3ccccc3)c2)CC1 ; yields the recorded call
active

// param item: CN(C(=O)C(Cl)Cl)c1ccc(OC(=O)c2ccco2)cc1 ; yields the recorded call
inactive

// param item: O=C(Nc1nnc(SCc2c(Cl)cccc2Cl)s1)C1CCCO1 (configuration not stated) ; yields the recorded call
active

// param item: OC[C@@H]1NC[C@@H](O)[C@@H](O)[C@H]1O ; yields the recorded call
inactive

// param item: Cc1cnn(-c2cc(N/N=C/c3ccccc3)ncn2)c1 ; yields the recorded call
active

// param item: Cc1cccc(C(=O)N2CCN(c3ccc([N+](=O)[O-])c(NCc4ccco4)c3)CC2)c1 ; yields the recorded call
inactive

// param item: N#CN(CC(N)=O)c1nc(N2CCCCC2)nc(N2CCCCC2)n1 ; yields the recorded call
active

// param item: Cc1cnn(-c2cc(N/N=C/c3ccccc3F)ncn2)c1 ; yields the recorded call
active

// param item: COc1ccc(C(C)=O)c(OC(=O)c2ccco2)c1 ; yields the recorded call
active

// param item: COCC(=O)N1CCC[C@@]2(CCN(Cc3ccccc3)C2)C1 ; yields the recorded call
inactive

// param item: N#Cc1cccc(NC(=O)N2CC[C@@]3(CCCN(C(=O)c4ccncc4)C3)C2)c1 ; yields the recorded call
inactive

// param item: O=[N+]([O-])c1ccc(N2CCCC2)cc1NCc1ccccc1 ; yields the recorded call
active

// param item: CC(C)c1ccc(CNc2cc(N3CCCC3)ccc2[N+](=O)[O-])cc1 ; yields the recorded call
active

// param item: OC[C@@H]1O[C@@H](n2cnc3c(N[C@@H]4C[C@@H]5CC[C@H]4C5)ncnc32)[C@@H](O)[C@H]1O ; yields the recorded call
inactive

// param item: CCOc1[nH]n(-c2ccccc2)c(=O)c1C=Nc1ccc(Cl)cc1 ; yields the recorded call
active

// param item: COc1ccc2cc(C)c3nnc(SCC(=O)Nc4nc(-c5ccccc5)cs4)n3c2c1 ; yields the recorded call
inactive

// param item: N#Cc1cccc(-c2nc(Nc3ccccc3)c3ccccc3n2)c1 ; yields the recorded call
active

// param item: CCCCOC(=O)NS(=O)(=O)c1sc(CC(C)C)cc1-c1ccc(Cn2c(CC)nc3c(C)cc(C)nc32)cc1 ; yields the recorded call
active

// param item: CNc1nc(-c2cccc(C#N)c2)nc2ccccc12 ; yields the recorded call
active

// param item: O=C(Oc1cccc(Br)c1)c1cccnc1 ; yields the recorded call
active

====

TARGET_ENTITY: Cytochrome P450 1A2 (Homo sapiens)
EXPERIMENT_SUMMARY: Cytochrome panel assay with activity outcomes
PROTOCOL_CONDITIONS: recombinant CYP, pro-luciferin dealkylation, luminescence, p450-cyp1a2; series mostly up to 57.1 µM
Out of some 16,000 compounds screened, about 5,700 (36%) were called active. Inconclusive results (about 24%) are left out. This is one part of the list.
EXPERIMENTAL_READOUT: AC50

Record excerpt, results attached:
• COCc1nnc(NC(=O)CSc2ccc(C)cc2)s1 = 12600 nM (active)
• COC(=O)C1=C(C)NC(C)=C(C(=O)OCCSc2ccccc2)[C@@H]1C = 794 nM (active)
• COc1cc(C2C(C(=O)OCCC#N)=C(C)NC3=C2S(=O)(=O)c2ccccc23)cc(OC)c1OC (stereo not given) = inactive
• CCOC(=O)C(Sc1ncnc2c1sc1nc(N3CCOCC3)c3c(c12)CCCC3)c1ccccc1 (stereo not given) = inactive
• CC(C)(C)C1CCc2c(C(=O)N/N=C/c3cccs3)csc2C1 (stereo not given) = inactive

Reported AC50 of FC(F)(F)c1ccccc1-c1nccc(NCc2ccccc2)n1 : 12600 nM (active)

Reported AC50 of CCOC(=O)CSc1nnc(Cc2cc(=O)[nH]c(=O)[nH]2)n1-c1cccc(OC)c1 : inactive
